Cited source for all entries: patent US11771738B2

# Tested on: third stage larvae of Haemonchus contortus
# experiment_notes: Haemonchus contortus, Larvae Stage 3 (HcL3) In Vitro Assay
# Type: cell-based
# condition_notes: Haemonchus contortus, 96 h, read-out: HcL3 MED, Minimum Effective Dose, H. contortus third stage larvae, approximately 96 hours

line_notation | inequality_symbol | minimal effective concentration / µM
CC(C)C[C@H]1C(=O)O[C@H](Cc2ccc(Cc3ccns3)cc2)C(=O)N(C)[C@@H](CC(C)C)C(=O)O[C@H](C)C(=O)N(C)[C@@H](CC(C)C)C(=O)O[C@H](Cc2ccc(Cc3ccns3)cc2)C(=O)N(C)[C@@H](CC(C)C)C(=O)O[C@H](C)C(=O)N1C | = | 5.6
Cc1noc(C)c1Cc1ccc(C[C@H]2OC(=O)[C@H](CC(C)C)N(C)C(=O)[C@@H](C)OC(=O)[C@H](CC(C)C)N(C)C(=O)[C@@H](Cc3ccccc3)OC(=O)[C@H](CC(C)C)N(C)C(=O)[C@@H](C)OC(=O)[C@H](CC(C)C)N(C)C2=O)cc1 | = | 1
CC(C)C[C@H]1C(=O)O[C@H](Cc2ccc(Cc3cccs3)cc2)C(=O)N(C)[C@@H](CC(C)C)C(=O)O[C@H](C)C(=O)N(C)[C@@H](CC(C)C)C(=O)O[C@H](Cc2ccc(Cc3cccs3)cc2)C(=O)N(C)[C@@H](CC(C)C)C(=O)O[C@H](C)C(=O)N1C | = | 0.5
CCOc1ncccc1Cc1ccc(C[C@H]2OC(=O)[C@H](CC(C)C)N(C)C(=O)[C@@H](C)OC(=O)[C@H](CC(C)C)N(C)C(=O)[C@@H](Cc3ccc(Cc4cccnc4OCC)cc3)OC(=O)[C@H](CC(C)C)N(C)C(=O)[C@@H](C)OC(=O)[C@H](CC(C)C)N(C)C2=O)cc1 | > | 100
CC(C)C[C@H]1C(=O)O[C@H](Cc2ccc(Cc3cccnc3Cl)cc2)C(=O)N(C)[C@@H](CC(C)C)C(=O)O[C@H](C)C(=O)N(C)[C@@H](CC(C)C)C(=O)O[C@H](Cc2ccc(Cc3cccnc3Cl)cc2)C(=O)N(C)[C@@H](CC(C)C)C(=O)O[C@H](C)C(=O)N1C | = | 0.55
CC(C)C[C@H]1C(=O)O[C@H](Cc2ccc(Cc3ccc4cn[nH]c4c3)cc2)C(=O)N(C)[C@@H](CC(C)C)C(=O)O[C@H](C)C(=O)N(C)[C@@H](CC(C)C)C(=O)O[C@H](Cc2ccccc2)C(=O)N(C)[C@@H](CC(C)C)C(=O)O[C@H](C)C(=O)N1C | > | 10
CC(C)C[C@H]1C(=O)O[C@H](Cc2ccc([C@H](F)c3nccs3)cc2)C(=O)N(C)[C@@H](CC(C)C)C(=O)O[C@H](C)C(=O)N(C)[C@@H](CC(C)C)C(=O)O[C@H](Cc2ccc([C@@H](F)c3nccs3)cc2)C(=O)N(C)[C@@H](CC(C)C)C(=O)O[C@H](C)C(=O)N1C | = | 5.7
